# key: entry, value: Percent Effect
# target-system: Proteasome subunit beta (Trypanosoma cruzi) (UniProt O96673)
# Sequence (O96673 as listed by the source): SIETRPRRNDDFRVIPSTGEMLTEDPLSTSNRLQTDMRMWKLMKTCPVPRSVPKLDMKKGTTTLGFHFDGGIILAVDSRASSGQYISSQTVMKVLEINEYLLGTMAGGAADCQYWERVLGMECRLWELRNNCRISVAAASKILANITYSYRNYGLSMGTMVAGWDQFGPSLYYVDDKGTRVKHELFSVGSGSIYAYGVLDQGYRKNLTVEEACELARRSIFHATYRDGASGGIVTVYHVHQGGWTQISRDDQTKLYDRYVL
# method-summary: Trypanosoma cruzi proteasome chymotrypsin-like activity (TcProtChymo) assay.
# Assay type: functional
# Set-up: scale not given: in the data most compounds retested in dose-response had high values
# experimental-parameters: 9.37 µM
Unit % implied. Number only.

The following compounds have reported results that may help.
                                   compound  measured_endpoint  test_value
0  COc1cccc(CN2CCC(c3cc(O)nc(C)n3)C2)c1 (configuration not stated)     Percent Effect        11.7
1  O=C([C@H]1C[C@@H]2CCN(C3CCOCC3)C[C@@H]2O1)N1CCOCC1     Percent Effect        16.8
2  CNC(=O)C1Cn2ccnc2C2(CCN(Cc3cccc(C)n3)CC2)O1 (configuration not stated)     Percent Effect        9.41

Please look up its Percent Effect: Cn1cccc1C(=O)N1CCn2cc(CNC(=O)CC3CC3)nc2C1
6.61

Please look up its Percent Effect: CC(NC(=O)NCCNc1ncccn1)c1cccs1 (configuration not stated)
4.9

Please look up its Percent Effect: O=C(CCc1ccccc1)N1CCC(N2CCNC2=O)CC1
6.06
